Give measured half-life for each item. Keep answers brief.
assay protocol: Half life in human liver microsomes
Type: ADME
Please answer using the number first and the unit second.

Form field: reported half-life of CCc1nc(C)n(CC)c1Oc1cc(Cl)cc(C#N)c1 16 min

Item under review: CCc1nc(C)n(CC)c1Oc1cc(C#N)cc(C#N)c1 . Reported half-life? 101 min

---

assay protocol: Inhibition of HIV-1 RDDP after 30 mins by scintillation counting analysis in presence of [3H]-TTP
Design: species or system Human immunodeficiency virus 1
Field: pIC50. Provide a value for each of the compounds that follow.
The meaning of pIC50 here: minus log10 of the concentration in molar units.

Returns the measured pIC50 for the input compound. Input: CCc1nc(C)n(CC)c1Oc1cc(C#N)cc(C#N)c1 6.88

Value lookup for pIC50; key = CCc1nc(C)n(CC)c1Oc1cc(Cl)cc(C#N)c1 7.74
